Hello, the source for this data is patent US20230129359A1, in case you need it.

- TEST SYSTEM: human M4 receptor (Homo sapiens, UniProt P08173)
- Construct: expressed in transfected cells; host or cells: CHO cells
- Sequence (P08173 1-479): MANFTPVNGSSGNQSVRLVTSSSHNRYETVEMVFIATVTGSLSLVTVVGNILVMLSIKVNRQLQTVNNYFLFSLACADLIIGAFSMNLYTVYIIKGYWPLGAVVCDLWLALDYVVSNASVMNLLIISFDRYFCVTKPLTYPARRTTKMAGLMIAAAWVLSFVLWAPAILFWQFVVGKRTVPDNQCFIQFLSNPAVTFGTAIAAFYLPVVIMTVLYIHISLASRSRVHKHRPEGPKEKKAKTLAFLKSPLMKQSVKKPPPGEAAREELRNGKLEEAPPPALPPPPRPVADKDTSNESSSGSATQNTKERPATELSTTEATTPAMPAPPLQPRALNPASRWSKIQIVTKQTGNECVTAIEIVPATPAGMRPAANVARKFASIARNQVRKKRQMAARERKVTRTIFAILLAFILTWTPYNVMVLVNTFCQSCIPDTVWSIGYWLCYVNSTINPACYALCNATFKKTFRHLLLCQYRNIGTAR
- PROTOCOL DETAILS: Radioligand ([3H]N-methylscopolamine) binding assay, membranes from CHO cells expressing human M4 receptor
- MEASUREMENT CONTEXT: Ki against human M4 receptor; membranes from CHO cells; tritiated N-methylscopolamine 1.5 nM; read-out: K
pKi: −log10 of the molar value.
Assign pKi to each entry below.

Please review the following examples before continuing.
STRUCTURE AS SMILES | TEST SYSTEM | READOUT VALUE
C[C@@H]1CN(c2ncc(C(F)(F)F)cn2)C[C@H](C)N1C(=O)NC1CC2(C1)CN(Cc1ccc(O)cc1)C2 | human M4 receptor (Homo sapiens, UniProt P08173) | > 8.00
C[C@@H]1CN(c2cnc(C(F)(F)F)cn2)C[C@H](C)N1C(=O)OC1CC2(C1)CN(Cc1ccc(Cl)cc1)C2 | human M4 receptor (Homo sapiens, UniProt P08173) | 7.00 to 8.00
C[C@@H]1CN(c2ncc(C(F)(F)F)cn2)CCN1C(=O)OC1CC2(C1)CN(Cc1ccc(Cl)cc1)C2 | human M4 receptor (Homo sapiens, UniProt P08173) | 6.00 to 7.00
CC(C)c1ccc(CN2CC3(CC(NC(=O)N4[C@H](C)CN(c5ncc(C(F)(F)F)cn5)C[C@@H]4C)C3)C2)cc1 | human M4 receptor (Homo sapiens, UniProt P08173) | 7.00 to 8.00

Please go through the list and note pKi for each compound.
1. C[C@@H]1CN(c2ncc(C(F)(F)F)cn2)C[C@H](C)N1C(=O)OC1CC2(C1)CN(CC1CCCCC1)C2
2. O=C(OC1CC2(C1)CN(Cc1ccccc1)C2)N1CC2COCC(C1)N2c1cnc(C(F)(F)F)cn1
3. C[C@@H]1CN(c2ncc(C(F)(F)F)cn2)C[C@H](C)N1C(=O)NC1CC2(C1)CN(CCc1ccccc1)C2

Result ::
1: 7.00 to 8.00; 2: 6.00 to 7.00; 3: 6.00 to 7.00
